# IC50 against Protein kinase C theta type (Homo sapiens, UniProt Q04759), merged from multiple literature sources
State the answer as a number, implicitly in nM.

Worked examples follow.
[[record]]
item_smiles = "CN1C(C)(C)CC(Nc2nc(Nc3ccc4ncccc4c3)ncc2F)CC1(C)C"
unit_symbol = "nM"
observed_measurement = 9.66

[[record]]
item_smiles = "Cc1c(Nc2c(C#N)cnc3sc(/C=C/C(=O)N(C)CCN(C)C)cc23)ccc2[nH]ccc12"
unit_symbol = "nM"
observed_measurement = 151

[[record]]
item_smiles = "Cc1c(Nc2c(C#N)cnc3sc(-c4cccc(C(=O)NCCN(C)C)c4)cc23)ccc2[nH]ccc12"
unit_symbol = "nM"
observed_measurement = 9

[[record]]
item_smiles = "Cc1ccc(Nc2ncc(C#N)c(NC3CC(C)(C)N(C)C(C)(C)C3)n2)cc1-n1cnnn1"
unit_symbol = "nM"
observed_measurement = 0.3

[[record]]
item_smiles = "CCOc1ccc(Nc2ncc(C#N)c(NC3CC(C)(C)NC(C)(C)C3)n2)cc1-n1nnnc1CC"
unit_symbol = "nM"
observed_measurement = 1.5


Lookup: Given the entry "Cc1c(Nc2c(C#N)cnc3sc(C#Cc4coc(CN5CCN(C)CC5)c4)cc23)ccc2[nH]ccc12" , what IC50 was observed with Protein kinase C theta type (Homo sapiens, UniProt Q04759)?
Found: 171

Lookup: Query IC50 on Protein kinase C theta type (Homo sapiens, UniProt Q04759) for "Cc1c(Nc2c(C#N)cnc3sc(/C=C/C(=O)O)c(C)c23)ccc2[nH]ccc12"
Found: 47

Lookup: Hi! What's the reported IC50 for "CN(C)Cc1ccc(-c2cc3c(Nc4ccc5[nH]ccc5c4)c(C#N)cnc3s2)o1" on Protein kinase C theta type (Homo sapiens, UniProt Q04759)?
Found: 170

Lookup: What reported IC50 corresponds to "CCSc1cc2ncc3c(N)nc(-c4cncc(OC[C@@H](N)Cc5ccccc5)c4)cc3c2cc1OC" on Protein kinase C theta type (Homo sapiens, UniProt Q04759)?
Found: 525

Lookup: Missing value: IC50, Protein kinase C theta type (Homo sapiens, UniProt Q04759), entry "CN1C(C)(C)CC(Nc2nc(Nc3ccc(-c4cccnc4)c(F)c3)ncc2F)CC1(C)C" . Fill in?
Found: 18.2

Lookup: # query: IC50 | item "CCCC/C=C/c1cc2c(Nc3ccc4[nH]ccc4c3)c(C#N)cnc2s1" | system: Protein kinase C theta type (Homo sapiens, UniProt Q04759)
Found: 2550
